biological target: T1, recombinant human IL4Rα-his protein (in house made) (human, UniProt P24394 26-232, limits assumed); experiment: SPR (Biacore), antibody captured, IL4Rα-his flowed
T1 construct: also called Human IL4Ra-his
kon listing for selected binders.
Please state the figure in M⁻¹ s⁻¹; there is no need to write the unit.

INSERT INTO assay_data (binder, unit_string, reported) VALUES
  ('huC2C1A1A1-V16 (antibody, human IgG4 S228P, kappa, V domains shown, Humanized, human IgG4/kappa) VH: EVQLVESGGGLVQPGGSLRLSCAASGFTFSTYGMSWVRQAPGKGLVWVATINSNGGSTSYPDSVKGRFTISRDNAKNTLYLQMNSLRAEDTAVYYCARFFRFRNAMDYWGQGTLVTVSS VL: DIQMTQSPSSLSASVGDRVTITCRTSENIYSYLAWYQQKPGKAPKFLIYNAKTLAEGVPSRFSGSGSGTDFTLTISSLQPEDFATYYCQHYYGPPTWTFGQGTKVEIKR', 'M⁻¹ s⁻¹', 296000);

We next turn to a different binder, shown below.
// kon lookup, binder = huC2C1A1A1-V10 (antibody, human IgG4 S228P, kappa, V domains shown, Humanized, human IgG4/kappa) VH: EVQLVESGGGLVQPGGSLRLSCAASGFTFSTYGMSWVRQAPGKGLVLVATINSNGGSTSYPDSVKGRFTISRDNAKNTLYLQMNSLRAEDTAVYYCARFFRFRNAMDYWGQGTLVTVSS VL: DIQMTQSPSSLSASVGQRVTITCRTSENIYSYLAWYQQKQGKPPRFLIYNAKTLAEGVPSRFSGSGSGTEFTLTITSLQAEDFGVYYCQHYYGPPTWTFGPGTKLEIKR , result: 329000
